Origin of values: paper PMC4884984

- System: HIF-1α–NanoLuc
- protocol.text: HIF-1α–NanoLuc reporter gene assay (qHTS primary and confirmatory screens)
- Assay type: cell-based, human
- condition.info: Homo sapiens; Table S7; confirmatory screen; read-out: HIF-1α–NanoLuc confirmatory IC50
Reported pIC50 values for a set of compounds
Quick note: pIC50 means taking -log10 of the concentration in moles per liter.

Worked examples follow.
{"compound": "Nc1nc2nc[nH]c2c(=S)[nH]1", "quantity.kind": "pIC50", "observed": 5.49}
{"compound": "CC(=O)Oc1ccccc1C(=O)Nc1ncc([N+](=O)[O-])s1 [Nitazoxanide]", "quantity.kind": "pIC50", "observed": 4.76}

pIC50 for Cn1cnc([N+](=O)[O-])c1Sc1ncnc2nc[nH]c12 ?
5.09

// pIC50 lookup, key: CC(=O)Oc1ccc(C2(c3ccc(OC(C)=O)cc3)C(=O)Nc3ccccc32)cc1 [Oxyphenisatin acetate]
5.61

Look up pIC50 for this compound: CC(=O)Oc1ccc(C(c2ccc(OC(C)=O)cc2)c2ccccn2)cc1
5.41

====

- Tested on: HRE–bla ME-180 cells
- protocol.text: Viability (BLA): CellTiter-Glo counter screen in HRE–bla cells
- Format: cell-based, human
- condition.info: Homo sapiens, ME-180; Table S7; confirmatory screen; read-out: Viability (BLA) confirmatory Efficacy
Emax by entry:
Your answer is read as %, so omit the unit and give the number.

Examples from the recorded data:
{"structure.string": "COC[C@H]1OC(=O)c2coc3c2[C@@]1(C)C1=C(C3=O)[C@@H]2CCC(=O)[C@@]2(C)C[C@H]1OC(C)=O", "Emax (%)": 47}
{"structure.string": "CCCS(=O)(=O)Nc1ccc(F)c(C(=O)c2c[nH]c3ncc(-c4ccc(Cl)cc4)cc23)c1F", "Emax (%)": 27}
{"structure.string": "CO[C@H]1C[C@@H]2CC[C@@H](C)[C@@](O)(O2)C(=O)C(=O)N2CCCC[C@H]2C(=O)O[C@H]([C@H](C)C[C@@H]2CC[C@@H](OC(=O)C(C)(CO)CO)[C@H](OC)C2)CC(=O)[C@H](C)/C=C(\\C)[C@@H](O)[C@@H](OC)C(=O)[C@H](C)C[C@H](C)/C=C/C=C/C=C/1C", "Emax (%)": 116}

As a next step, examine the compound that follows.
Query for HRE–bla ME-180 cells: what Emax does the record show for CCN(CC)CCNC(=O)c1c(C)[nH]c(/C=C2\C(=O)Nc3ccc(F)cc32)c1C ?
60

====

- Test system: HIF-1α–NanoLuc
- protocol.text: HIF-1α–NanoLuc reporter gene assay (qHTS primary and confirmatory screens)
- Assay type: cell-based, human
- condition.info: Homo sapiens, read-out: HIF-1α–NanoLuc confirmatory IC50
*1 amine or outer side, *2 acyl side, *3 side chain or, on linkers, in order; H or OH if unused. Where a SMILES comes first, the peptide text is derived from it. Bridges are numbered along the chain shown (N, C = ends). Roman numbers before positions name the chains, in order. [ ]: non-standard residue; d: D form. Actinocin(9to1) = Cc1c2oc3c(C)ccc(C(=O)[*:1])c3nc-2c(C(=O)[*:2])c(N)c1=O; NMeV = CN[C@H](C(=O)O)C(C)C; Sar = CNCC(=O)O
quantity.kind: pIC50
Scale explanation: pIC50 corresponds to minus log10 of a concentration expressed in moles per litre.

Solved entries:
{"molecule": "C[C@H]1O[C@@H](O[C@H]2[C@@H](O)C[C@H](O[C@H]3[C@@H](O)C[C@H](O[C@H]4CC[C@@]5(C)[C@H](CC[C@@H]6[C@@H]5CC[C@]5(C)[C@@H](C7=CC(=O)OC7)CC[C@]65O)C4)O[C@@H]3C)O[C@@H]2C)C[C@H](O)[C@@H]1O", "pIC50": 6.96}
{"molecule": "C[C@@H]1O[C@@H](O[C@@H]2C=C3CC[C@@H]4[C@H](CC[C@]5(C)[C@@H](c6ccc(=O)oc6)CC[C@]45O)[C@@]3(C)CC2)[C@H](O)[C@H](O)[C@H]1O", "pIC50": 8.00}

May I ask what pIC50 has been recorded for Cc1c2oc3c(C)ccc(C(=O)N[C@@H]4C(=O)N[C@H](C(C)C)C(=O)N5CCC[C@H]5C(=O)N(C)CC(=O)N(C)[C@@H](C(C)C)C(=O)O[C@@H]4C)c3nc-2c(C(=O)N[C@@H]2C(=O)N[C@H](C(C)C)C(=O)N3CCC[C@H]3C(=O)N(C)CC(=O)N(C)[C@@H](C(C)C)C(=O)O[C@@H]2C)c(N)c1=O [Actinomycin D] (I: T[dV]P[Sar][NMeV] / II: T[dV]P[Sar][NMeV]; ester I:1-I:C, II:1-II:C; linker I:N-II:N via Actinocin(9to1)) ?
7.52
